tested_target: Chromo domain-containing protein 1 (Saccharomyces cerevisiae (strain ATCC 204508 / S288c) (Baker's yeast)) (UniProt P32657)
Sequence (P32657 whole entry, the tested form may be a part): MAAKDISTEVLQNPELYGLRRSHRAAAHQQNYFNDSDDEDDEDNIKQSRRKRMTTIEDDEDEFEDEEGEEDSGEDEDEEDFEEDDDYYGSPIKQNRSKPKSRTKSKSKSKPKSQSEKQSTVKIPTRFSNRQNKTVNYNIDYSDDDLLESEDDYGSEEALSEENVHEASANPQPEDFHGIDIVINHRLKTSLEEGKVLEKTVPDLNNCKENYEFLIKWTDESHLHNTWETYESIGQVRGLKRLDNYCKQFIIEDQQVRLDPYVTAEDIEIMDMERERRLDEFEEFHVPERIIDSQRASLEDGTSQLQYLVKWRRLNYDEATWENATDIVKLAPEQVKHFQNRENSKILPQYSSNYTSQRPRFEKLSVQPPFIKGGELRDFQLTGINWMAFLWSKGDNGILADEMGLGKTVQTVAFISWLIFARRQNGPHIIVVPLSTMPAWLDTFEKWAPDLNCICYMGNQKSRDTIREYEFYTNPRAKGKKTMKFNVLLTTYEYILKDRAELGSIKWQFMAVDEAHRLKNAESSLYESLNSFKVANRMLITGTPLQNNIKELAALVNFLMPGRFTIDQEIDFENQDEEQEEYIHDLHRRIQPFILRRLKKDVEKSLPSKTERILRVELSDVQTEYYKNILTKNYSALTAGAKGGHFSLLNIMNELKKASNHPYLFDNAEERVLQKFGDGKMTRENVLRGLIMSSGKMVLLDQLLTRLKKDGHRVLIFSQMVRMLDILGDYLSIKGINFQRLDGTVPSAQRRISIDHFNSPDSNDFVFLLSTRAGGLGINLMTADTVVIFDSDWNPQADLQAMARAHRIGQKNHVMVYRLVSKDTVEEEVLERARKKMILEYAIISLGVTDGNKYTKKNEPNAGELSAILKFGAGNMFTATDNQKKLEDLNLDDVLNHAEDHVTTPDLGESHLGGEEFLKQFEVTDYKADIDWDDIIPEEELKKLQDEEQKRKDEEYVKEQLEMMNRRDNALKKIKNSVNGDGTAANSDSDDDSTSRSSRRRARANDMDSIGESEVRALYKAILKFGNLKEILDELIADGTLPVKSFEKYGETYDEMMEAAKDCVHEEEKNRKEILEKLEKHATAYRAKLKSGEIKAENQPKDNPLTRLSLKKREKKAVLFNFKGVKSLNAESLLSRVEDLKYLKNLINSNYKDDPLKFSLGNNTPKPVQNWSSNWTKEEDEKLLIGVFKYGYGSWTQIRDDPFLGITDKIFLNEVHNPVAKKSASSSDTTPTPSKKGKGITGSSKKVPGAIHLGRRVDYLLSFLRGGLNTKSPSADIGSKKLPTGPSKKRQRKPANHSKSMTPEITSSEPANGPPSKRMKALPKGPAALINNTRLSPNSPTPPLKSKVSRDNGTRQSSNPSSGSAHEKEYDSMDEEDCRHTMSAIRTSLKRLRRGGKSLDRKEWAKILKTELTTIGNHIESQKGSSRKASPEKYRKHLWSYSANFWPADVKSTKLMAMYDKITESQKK
protocol_details: ScCHD-1 Enzyme Inhibition Assay
Assay type: functional
Set-up: scale not given: in the data most compounds retested in dose-response had high values
experimental_parameters: 30 µM
experimental_endpoint: Percent Effect
// return the numeric value with its unit appended

Take a look at these entries with their results.
| compound | Percent Effect |
| --- | --- |
| CN(C)Cc1ccc(C2CCCCN2C(=O)c2cc(C3CC3)n[nH]2)cc1 (centres undefined) | -0.312% |
| Cc1cc(C)n(-c2ccc(CNCc3ccc(OC(C)C)cc3)cn2)n1 | -10.2% |
| CCc1nccn1C1CCCN(C(=O)Cc2n[nH]c3ccccc23)C1 (centres undefined) | -2.38% |
| Cc1ncsc1CCC(=O)N1CCCC[C@H](N(C)C)C1 | -3.1% |
| CS(=O)(=O)NCC(=O)N1CCCC1c1noc(C2CC2)n1 (centres undefined) | -6.99% |
| CCCOc1cccc(CNC(=O)CN2CCN(C)CC2C)c1 (centres undefined) | -9.26% |

Query (compound): CC(=O)N1CCCC1c1ccc(C(=O)N2CCOCC2)s1 (centres undefined) ; field requested: Percent Effect
4.51%

Likewise for O=C1COc2c(cccc2C(=O)N2CCCCC2Cn2cccn2)N1 (centres undefined) ?
-12.7%

Likewise for c1cnn(CC2CN(Cc3nc(-c4ccsc4)no3)CCO2)c1 (centres undefined) ?
0.902%

Likewise for O=C1CC(c2cccnc2)C2(CCN(C(=O)c3ccncc3)CC2)N1 (centres undefined) ?
1.46%

Likewise for O=C(NCc1ccco1)[C@@]12CCO[C@@H]1CCN(CCN1CCCC1)C2 ?
-12%

Likewise for O=C(NCCn1ccnc1)N1CCN(Cc2cccs2)CC1 ?
-9.63%

Likewise for CCOC(=O)N1CCN(C(=O)c2sc(-c3ccccc3F)nc2C)CC1 ?
-4.07%
